system: HDQ-P1; experiment: normalised viability (% of control), CellTiter-Blue; higher = more viable cells (about 100 = DMSO control); details: incubation time: 72 h
observable: normalised viability (%)
The answer is to be given in %; state only the numeric part.

Example compounds with recorded normalised viability:
compound	normalised viability [%]
C[C@@]1(C(=O)Nc2ccc(F)nc2)CCCN1c1nc(Nc2cc(C3CC3)n[nH]2)c2cccn2n1 (3000 nM)	25.6
COc1ncc(-c2ccc3nccc(-c4ccnnc4)c3c2)cc1NS(=O)(=O)c1ccc(F)cc1F (300 nM)	21.2
COc1cccc2c1C(=O)c1c(O)c3c(c(O)c1C2=O)C[C@@](O)(C(C)=O)C[C@@H]3O[C@H]1C[C@H](N)[C@H](O)[C@H](C)O1 [Daunorubicin] (300 nM)	52.7
O=c1[nH]cc(F)c(=O)[nH]1 [Fluorouracil] (3000 nM)	87.8
C[C@@H]1C=C2C(=O)O[C@@H]3CC[C@H](C1)[C@]23O [Galiellalactone] (15000 nM)	75.3

Problem: Query for HDQ-P1: what normalised viability does the record show for CC(=O)O[C@H]1C(=O)[C@@]2(C)[C@H]([C@H](OC(=O)c3ccccc3)[C@]3(O)C[C@H](OC(=O)[C@H](O)[C@@H](NC(=O)c4ccccc4)c4ccccc4)C(C)=C1C3(C)C)[C@]1(OC(C)=O)CO[C@@H]1C[C@@H]2O [Paclitaxel] (300 nM) ?
Solution: 26.6

Problem: # query: normalised viability | item c1ccc(C2CN3CCSC3=N2)cc1 (configuration not stated) [Tetramisole] (3000 nM) | system: HDQ-P1
Solution: 101

---

test system: CAL-85-1; assay: normalised viability (% of control), CellTiter-Blue; higher = more viable cells (about 100 = DMSO control); conditions: 10 nM; incubation time: 72 h
Below, each of the molecules is paired with its reported normalised viability value.
Quick note: give the figure in %, leave out the unit.

                                  molecule            observable  value
0  O=P(O)(NCCCl)NCCCl [Ifosfamide mustard]  normalised viability    101

Problem: normalised viability for COC1=C2C[C@@H](C)C[C@H](OC)[C@H](O)[C@@H](C)/C=C(\C)[C@H](OC(N)=O)[C@@H](OC)/C=C\C=C(/C)C(=O)NC(=CC1=O)C2=O ?
Solution: 105

Problem: Data request, read-out normalised viability, for C[C@@]1(C(=O)Nc2ccc(F)nc2)CCCN1c1nc(Nc2cc(C3CC3)n[nH]2)c2cccn2n1
Solution: 93.5

Problem: Any idea what normalised viability was measured for O=c1[nH]cc(F)c(=O)[nH]1 ?
Solution: 94.7

Problem: What measured normalised viability goes with O=c1[nH]c(=O)n([C@H]2C[C@H](O)[C@@H](CO)O2)cc1F ?
Solution: 93.1

Problem: Return reported normalised viability; argument: C#Cc1cccc(Nc2ncnc3cc(OC)c(OCCCCCCC(=O)NO)cc23)c1
Solution: 93

Problem: Which measured normalised viability value corresponds to O=C(c1ccc(OCCN2CCCCC2)cc1)c1c(-c2ccc(O)cc2)sc2cc(O)ccc12 ?
Solution: 101

---

tested on: HDQ-P1; settings: 72 h
observable: EC50, CellTiter-Blue viability

Please review the entries below; each comes with its answer.
>>> df
                                   compound    value
0  COC(=O)C[C@](O)(CCCC(C)(C)O)C(=O)O[C@@H]1C(OC)=C[C@]23CCCN2CCc2cc4c(cc2[C@H]13)OCO4 [Omacetaxine]  13.8 nM
1  COc1cccc2c1C(=O)c1c(O)c3c(c(O)c1C2=O)C[C@@](O)(C(C)=O)C[C@@H]3O[C@H]1C[C@H](N)[C@H](O)[C@H](C)O1 [Daunorubicin]   338 nM
2  C#Cc1cccc(Nc2ncnc3cc(OC)c(OCCCCCCC(=O)NO)cc23)c1 [CUDC-101]   213 nM

API: the following record is the query input.
Problem: Reported EC50, CellTiter-Blue viability for HDQ-P1, given COc1ncc(-c2ccc3nccc(-c4ccnnc4)c3c2)cc1NS(=O)(=O)c1ccc(F)cc1F ?
Solution: 6.71 nM
